# experiment description: Selectivity index, Ratio of IC50 for rat L6 cells to IC50 for Plasmodium falciparum K1
# Type: functional
measured parameter: Ratio IC50
// return a plain number; no unit text

I would be grateful if you could share the reported Ratio IC50 for [Cl-].c1cc2nc3ccc(N4CCOCC4)cc3[o+]c2cc1N1CCOCC1 .
66.5

Same again, this time with CCCN(CCC)c1ccc2nc3ccc(N4CCCCC4)cc3[o+]c2c1.[Cl-]
105.3

Same again, this time with CCN(CC)c1ccc2nc3ccc(N4CCCC4)cc3[o+]c2c1.[Cl-]
1390

Same again, this time with CN(C)c1ccc2nc3ccc(N4CCCCC4)cc3[o+]c2c1.[Cl-]
7740

Same again, this time with CN(C)c1ccc2nc3ccc(N4CCCC4)cc3[o+]c2c1.[Cl-]
2166.5
